- ASSAY_EXPLANATION: oral bioavailability in rats (AUC versus intravenous)
- EXPERIMENTAL_SETUP: rat, in vivo, po, 100 mg/kg, Rats, 100 mg/kg PO, 100% PEG400 (Table 8 footnote 2); read-out: F
QUANTITY_KIND: bioavailability

IN: Which bioavailability is listed for Cc1ccc2c(c1)[n+]([O-])c1ccccc1[n+]2[O-] [2-methylphenazine-5,10-dioxide] ?
OUT: ~50%

Values were extracted from patent US5637591A.
